- experimental-system: SWI/SNF-related matrix-associated actin-dependent regulator of chromatin subfamily A member 2 (Homo sapiens) (UniProt P51531)
- Sequence (P51531 whole entry): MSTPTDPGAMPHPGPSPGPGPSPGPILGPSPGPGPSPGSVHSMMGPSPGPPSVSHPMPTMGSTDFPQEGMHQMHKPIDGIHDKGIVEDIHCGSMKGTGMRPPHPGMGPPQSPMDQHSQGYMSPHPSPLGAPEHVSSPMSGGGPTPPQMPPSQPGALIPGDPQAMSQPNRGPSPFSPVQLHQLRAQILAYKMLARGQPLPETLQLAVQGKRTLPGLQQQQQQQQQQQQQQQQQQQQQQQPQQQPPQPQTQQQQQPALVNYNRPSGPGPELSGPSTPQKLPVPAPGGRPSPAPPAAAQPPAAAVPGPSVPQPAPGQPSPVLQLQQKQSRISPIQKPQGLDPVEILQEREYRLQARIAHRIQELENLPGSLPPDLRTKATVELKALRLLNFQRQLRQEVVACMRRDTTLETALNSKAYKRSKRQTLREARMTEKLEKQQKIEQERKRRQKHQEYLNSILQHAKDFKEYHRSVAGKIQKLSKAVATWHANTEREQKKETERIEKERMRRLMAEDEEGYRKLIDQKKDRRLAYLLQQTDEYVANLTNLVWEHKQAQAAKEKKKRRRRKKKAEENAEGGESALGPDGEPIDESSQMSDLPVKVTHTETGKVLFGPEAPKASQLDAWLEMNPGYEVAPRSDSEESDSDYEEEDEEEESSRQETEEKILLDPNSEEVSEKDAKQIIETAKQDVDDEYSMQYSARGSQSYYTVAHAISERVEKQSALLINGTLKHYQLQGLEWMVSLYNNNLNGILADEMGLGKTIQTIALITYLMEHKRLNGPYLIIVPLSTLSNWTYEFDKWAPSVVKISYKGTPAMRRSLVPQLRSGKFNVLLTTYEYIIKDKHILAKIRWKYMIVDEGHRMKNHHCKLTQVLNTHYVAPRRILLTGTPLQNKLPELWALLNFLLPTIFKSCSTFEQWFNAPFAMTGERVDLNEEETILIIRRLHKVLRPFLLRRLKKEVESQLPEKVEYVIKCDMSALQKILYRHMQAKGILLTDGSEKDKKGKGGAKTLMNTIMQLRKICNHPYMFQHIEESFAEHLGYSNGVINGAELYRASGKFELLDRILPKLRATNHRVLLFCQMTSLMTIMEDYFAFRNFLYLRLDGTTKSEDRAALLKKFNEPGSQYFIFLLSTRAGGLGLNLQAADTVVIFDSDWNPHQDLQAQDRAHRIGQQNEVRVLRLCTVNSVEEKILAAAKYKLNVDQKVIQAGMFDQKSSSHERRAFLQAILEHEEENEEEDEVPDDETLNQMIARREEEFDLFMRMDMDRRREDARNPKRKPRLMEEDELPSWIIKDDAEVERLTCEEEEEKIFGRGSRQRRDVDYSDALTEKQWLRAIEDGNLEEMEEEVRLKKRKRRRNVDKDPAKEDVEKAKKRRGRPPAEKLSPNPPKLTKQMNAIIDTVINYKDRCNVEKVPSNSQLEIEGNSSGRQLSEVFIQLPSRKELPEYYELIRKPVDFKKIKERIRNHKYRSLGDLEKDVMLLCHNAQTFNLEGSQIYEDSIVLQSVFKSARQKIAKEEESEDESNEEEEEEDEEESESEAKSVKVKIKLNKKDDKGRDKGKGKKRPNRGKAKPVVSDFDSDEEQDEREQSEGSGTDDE
- assay-name: Binding affinity to His6-tagged human recombinant SMARCA2B bromodomain expressed in Escherichia coli BL21(DE3)-R3-pRARE2 cells assessed as change in melting temperature at 10 uM by SyproOrange dye based DSF thermal shift assay
Recorded ΔTm, one value per entry.
endpoint-label: ΔTm

| test-smiles | observed |
| --- | --- |
| CN1CCN(/C=C2\CCn3c2nc(=O)c2c(Cl)cccc23)CC1 | 4.2 °C |
| O=c1nc2n(c3cccc(Cl)c13)CC/C2=C\N1CCCCC1 | 4.3 °C |
| CN1CCC(/C=C2\CCn3c2nc(=O)c2c(Cl)cccc23)CC1 | 1 °C |
| O=c1nc2n(c3cccc(Cl)c13)CC/C2=C\N1CCCC1 | 1.3 °C |
| O=c1nc2n(c3cccc(Cl)c13)CC/C2=C\N1CCOCC1 | 1.7 °C |
| O=c1nc2n(c3cccc(Cl)c13)CC/C2=C\C1CCCCC1 | 1.6 °C |

---

Recorded ΔTm, one value per entry.
- experimental-system: Protein polybromo-1 (Homo sapiens)

| test-smiles | experimental-system | ΔTm, °C |
| --- | --- | --- |
| O=c1nc2n(c3cccc(Cl)c13)CC/C2=C\N1CCCC1 | Protein polybromo-1 (Homo sapiens) | 0.4 |
| O=c1nc2n(c3cccc(Cl)c13)CC/C2=C\N1CCOCC1 | Protein polybromo-1 (Homo sapiens) | 0.3 |
| CN1CCC(/C=C2\CCn3c2nc(=O)c2c(Cl)cccc23)CC1 | Protein polybromo-1 (Homo sapiens) | 0.8 |
| O=c1nc2n(c3cccc(Cl)c13)CC/C2=C\C1CCCCC1 | Protein polybromo-1 (Homo sapiens) | 0.7 |
| O=c1nc2n(c3cccc(Cl)c13)CC/C2=C\N1CCCCC1 | Protein polybromo-1 (Homo sapiens) | 0.9 |
| CN(C)/C=C1\CCn2c1nc(=O)c1c(Cl)cccc12 | Protein polybromo-1 (Homo sapiens) | 0.4 |
| O=c1nc2n(c3cccc(Cl)c13)CC/C2=C\C1CCOCC1 | Protein polybromo-1 (Homo sapiens) | 1.2 |
| CCN(/C=C1\CCn2c1nc(=O)c1c(Cl)cccc12)CC | Protein polybromo-1 (Homo sapiens) | 0.6 |
| CCC(/C=C1\CCn2c1nc(=O)c1c(Cl)cccc12)CC | Protein polybromo-1 (Homo sapiens) | 2.7 |
| CN1CCN(/C=C2\CCn3c2nc(=O)c2c(Cl)cccc23)CC1 | Protein polybromo-1 (Homo sapiens) | 1.1 |
| CCN1CCN(/C=C2\CCn3c2nc(=O)c2c(Cl)cccc23)CC1 | Protein polybromo-1 (Homo sapiens) | 0.9 |

---

- experimental-system: Protein polybromo-1 (Homo sapiens, UniProt Q86U86)
- Sequence (Q86U86 whole entry): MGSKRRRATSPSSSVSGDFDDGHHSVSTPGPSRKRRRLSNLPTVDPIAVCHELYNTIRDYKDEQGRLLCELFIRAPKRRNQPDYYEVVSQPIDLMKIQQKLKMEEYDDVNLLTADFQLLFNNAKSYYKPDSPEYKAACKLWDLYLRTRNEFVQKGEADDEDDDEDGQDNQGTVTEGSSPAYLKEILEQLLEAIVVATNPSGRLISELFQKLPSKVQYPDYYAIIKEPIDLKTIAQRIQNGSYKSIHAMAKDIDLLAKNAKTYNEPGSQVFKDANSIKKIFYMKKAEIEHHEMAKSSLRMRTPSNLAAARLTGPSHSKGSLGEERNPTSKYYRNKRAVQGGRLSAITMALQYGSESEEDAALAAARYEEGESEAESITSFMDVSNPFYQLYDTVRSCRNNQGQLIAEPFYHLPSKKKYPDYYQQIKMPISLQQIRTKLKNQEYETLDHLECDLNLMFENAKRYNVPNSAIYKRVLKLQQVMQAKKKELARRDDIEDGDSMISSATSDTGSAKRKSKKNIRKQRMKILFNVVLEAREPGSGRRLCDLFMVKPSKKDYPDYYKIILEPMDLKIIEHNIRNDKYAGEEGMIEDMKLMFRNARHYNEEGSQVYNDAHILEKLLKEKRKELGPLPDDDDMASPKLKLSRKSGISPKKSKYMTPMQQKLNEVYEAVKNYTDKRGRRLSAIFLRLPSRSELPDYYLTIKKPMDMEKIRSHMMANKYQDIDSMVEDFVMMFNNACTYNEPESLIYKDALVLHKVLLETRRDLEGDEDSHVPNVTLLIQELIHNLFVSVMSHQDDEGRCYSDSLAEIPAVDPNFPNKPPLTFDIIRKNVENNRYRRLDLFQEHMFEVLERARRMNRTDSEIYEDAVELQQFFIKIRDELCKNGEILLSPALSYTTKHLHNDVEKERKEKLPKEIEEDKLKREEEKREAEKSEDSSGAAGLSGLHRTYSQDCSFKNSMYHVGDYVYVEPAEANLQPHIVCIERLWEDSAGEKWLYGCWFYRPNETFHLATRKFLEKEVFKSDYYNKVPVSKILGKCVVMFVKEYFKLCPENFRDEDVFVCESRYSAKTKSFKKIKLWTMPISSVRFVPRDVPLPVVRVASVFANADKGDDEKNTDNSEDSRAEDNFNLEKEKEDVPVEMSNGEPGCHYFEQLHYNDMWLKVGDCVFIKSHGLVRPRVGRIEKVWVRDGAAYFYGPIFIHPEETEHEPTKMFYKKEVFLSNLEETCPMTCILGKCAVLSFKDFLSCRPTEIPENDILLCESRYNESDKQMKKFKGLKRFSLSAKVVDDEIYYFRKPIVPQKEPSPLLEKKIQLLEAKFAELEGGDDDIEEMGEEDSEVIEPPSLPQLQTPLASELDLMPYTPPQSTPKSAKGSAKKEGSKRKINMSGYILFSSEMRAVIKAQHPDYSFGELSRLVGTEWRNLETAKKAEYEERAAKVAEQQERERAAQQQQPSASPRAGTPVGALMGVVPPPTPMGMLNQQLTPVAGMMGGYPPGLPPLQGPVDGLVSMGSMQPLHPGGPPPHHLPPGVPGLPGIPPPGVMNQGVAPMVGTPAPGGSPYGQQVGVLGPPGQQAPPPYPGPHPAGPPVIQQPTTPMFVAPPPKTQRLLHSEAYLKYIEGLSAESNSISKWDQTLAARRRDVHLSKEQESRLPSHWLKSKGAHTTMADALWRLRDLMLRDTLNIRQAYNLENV
Response field label: string, one of 1 (yes) (ΔTm strictly below 4 °C) or 0 (no).

| test-smiles | experimental-system | cat |
| --- | --- | --- |
| O=c1nc2n(c3ccccc13)CC/C2=C\N1CCCC1 | Protein polybromo-1 (Homo sapiens, UniProt Q86U86) | 0 (no) |
| CCC(/C=C1\CCn2c1nc(=O)c1c(Cl)cccc12)CC | Protein polybromo-1 (Homo sapiens, UniProt Q86U86) | 0 (no) |
| O=c1nc2n(c3cccc(Cl)c13)CC/C2=C\N1CCCC1 | Protein polybromo-1 (Homo sapiens, UniProt Q86U86) | 0 (no) |
| CN(C)/C=C1\CCn2c1nc(=O)c1c(Br)cccc12 | Protein polybromo-1 (Homo sapiens, UniProt Q86U86) | 0 (no) |
| CN1CCN(/C=C2\CCn3c2nc(=O)c2ccccc23)CC1 | Protein polybromo-1 (Homo sapiens, UniProt Q86U86) | 1 (yes) |
| CCN1CCN(/C=C2\CCn3c2nc(=O)c2c(Cl)cccc23)CC1 | Protein polybromo-1 (Homo sapiens, UniProt Q86U86) | 0 (no) |
| CN1CCC(/C=C2\CCn3c2nc(=O)c2c(Cl)cccc23)CC1 | Protein polybromo-1 (Homo sapiens, UniProt Q86U86) | 0 (no) |
| O=c1nc2n(c3cccc(Cl)c13)CC/C2=C\C1CCCCC1 | Protein polybromo-1 (Homo sapiens, UniProt Q86U86) | 0 (no) |
| CC(C)(C)OC(=O)N1CCN(/C=C2\CCn3c2nc(=O)c2ccccc23)CC1 | Protein polybromo-1 (Homo sapiens, UniProt Q86U86) | 1 (yes) |
| CN(C)/C=C1\CCn2c1nc(=O)c1ccccc12 | Protein polybromo-1 (Homo sapiens, UniProt Q86U86) | 0 (no) |
| O=c1nc2n(c3cccc(Cl)c13)CC/C2=C\N1CCCCC1 | Protein polybromo-1 (Homo sapiens, UniProt Q86U86) | 0 (no) |
| CN(C)/C=C1\CCn2c1nc(=O)c1c(Cl)cccc12 | Protein polybromo-1 (Homo sapiens, UniProt Q86U86) | 0 (no) |
| CN(C)/C=C1\CCn2c1nc(=O)c1c(O)cccc12 | Protein polybromo-1 (Homo sapiens, UniProt Q86U86) | 1 (yes) |
| O=c1nc2n(c3ccccc13)CC/C2=C\c1ccoc1 | Protein polybromo-1 (Homo sapiens, UniProt Q86U86) | 1 (yes) |
| CCN1CCN(/C=C2\CCn3c2nc(=O)c2ccccc23)CC1 | Protein polybromo-1 (Homo sapiens, UniProt Q86U86) | 0 (no) |
| CCN(/C=C1\CCn2c1nc(=O)c1c(Cl)cccc12)CC | Protein polybromo-1 (Homo sapiens, UniProt Q86U86) | 0 (no) |
| O=c1nc2n(c3ccccc13)CC/C2=C\N1CCCCC1 | Protein polybromo-1 (Homo sapiens, UniProt Q86U86) | 0 (no) |
| CCCN(/C=C1\CCn2c1nc(=O)c1ccccc12)CCC | Protein polybromo-1 (Homo sapiens, UniProt Q86U86) | 0 (no) |
| Cc1cccc2c1c(=O)nc1n2CC/C1=C\N(C)C | Protein polybromo-1 (Homo sapiens, UniProt Q86U86) | 1 (yes) |
| COc1cccc2c1c(=O)nc1n2CC/C1=C\N(C)C | Protein polybromo-1 (Homo sapiens, UniProt Q86U86) | 1 (yes) |
| CN(C)/C=C1\CCn2c1nc(=O)c1c(F)cccc12 | Protein polybromo-1 (Homo sapiens, UniProt Q86U86) | 1 (yes) |
| O=c1nc2n(c3cccc(Cl)c13)CC/C2=C\C1CCOCC1 | Protein polybromo-1 (Homo sapiens, UniProt Q86U86) | 0 (no) |
| O=c1nc2n(c3cccc(Cl)c13)CC/C2=C\N1CCOCC1 | Protein polybromo-1 (Homo sapiens, UniProt Q86U86) | 0 (no) |
| O=c1nc2n(c3ccccc13)CC/C2=C\N1CCOCC1 | Protein polybromo-1 (Homo sapiens, UniProt Q86U86) | 0 (no) |
| CC(C)N(/C=C1\CCn2c1nc(=O)c1ccccc12)C(C)C | Protein polybromo-1 (Homo sapiens, UniProt Q86U86) | 1 (yes) |
